All figures here come from PubChem BioAssay (EPA / NIEHS).

Molecular target: human Serotonin, 5-Hydroxytryptamine Receptor 6 (5HT6), HTR6 (gene 3362)
Assay: NVS_GPCR_h5HT6: NovaScreen (NVS) G Protein-Coupled Receptor Assay for human Serotonin, 5-Hydroxytryptamine Receptor 6 (5HT6) (AID 2283253)
Results filed as inconclusive are left out. Active and inactive are the calls of the source. How the source made its calls: active means hit-call score of the fitted dose curve at least 0.9, where 1 is the maximum; inconclusive means response in the unintended direction; inactive means score below 0.9.
Just give me one of these, please: active, inactive

[[record]]
structurestring = "CCC(C)(c1ccc(O)cc1)c1ccc(O)cc1"
assayedsystem = "human Serotonin, 5-Hydroxytryptamine Receptor 6 (5HT6), HTR6 (gene 3362)"
class = "active"

[[record]]
structurestring = "Oc1ccc(C(c2ccc(O)cc2)(C(F)(F)F)C(F)(F)F)cc1"
assayedsystem = "human Serotonin, 5-Hydroxytryptamine Receptor 6 (5HT6), HTR6 (gene 3362)"
class = "active"


Prompt: Hey, what did the test say about Oc1ccc(Cl)cc1Cl ?
Completion: inactive

Prompt: Hey, what did the test say about COc1ccc(O)c(C(C)(C)C)c1 ?
Completion: active

Prompt: Hey, what did the test say about CCCCCCCCCC[N+](C)(C)CCCCCCCCCC ?
Completion: active

Prompt: Hey, what did the test say about CC(C)(c1ccccc1)c1ccc(O)cc1 ?
Completion: active

---

Read-out: UDP glucuronosyltransferase (UGT1A1), UGT1A1 (gene 54658)
Assay: LTEA_HepaRG_UGT1A1: Life Technologies and Expression Analysis (LTEA) Assay for UDP glucuronosyltransferase (UGT1A1) using HepaRG (AID 2283538)
Settings: mRNA level, 48 h; actives raise or lower the signal
The source made the active and inactive calls. How the source made its calls: active means hit-call score of the fitted dose curve at least 0.9, where 1 is the maximum; inactive means score below 0.9.
Just give me one of these, please: TRUE (active), FALSE (inactive)

Consider the worked cases shown below.
[[record]]
compound = "NS(=O)(=O)C(F)(F)C(F)(F)C(F)(F)C(F)(F)C(F)(F)C(F)(F)C(F)(F)C(F)(F)F"
class = "TRUE"

[[record]]
compound = "Clc1ccc(C(c2ccccc2Cl)C(Cl)(Cl)Cl)cc1 (stereo not drawn)"
class = "TRUE"

[[record]]
compound = "Clc1ccc(C(Cl)(Cl)Cl)cc1"
class = "FALSE"

[[record]]
compound = "Cc1cc(O)ccc1Cl"
class = "FALSE"


Prompt: Hey, what did the test say about CCSC(=O)N(CC)C1CCCCC1 ?
Completion: FALSE

Prompt: Hey, what did the test say about Oc1ccc(Cl)cc1Cl ?
Completion: FALSE

Prompt: Hey, what did the test say about ClC1=C(Cl)[C@]2(Cl)[C@@H]3[C@@H]4C[C@@H]([C@H]5O[C@@H]45)[C@@H]3[C@@]1(Cl)C2(Cl)Cl ?
Completion: TRUE

Prompt: Hey, what did the test say about CC(c1ccc(O)cc1)(c1ccc(O)cc1)c1ccc(O)cc1 ?
Completion: TRUE

---

Experiment: CCTE_Mundy_HCI_iCellGluta_NOG_NeuronCount: CCTE's Neurite Outgrowth Assay in iCellGluta cells for Neuron Count, Mundy Lab (AID 2284340);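 further: cells fixed about 48 h after compound addition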
Inconclusive results are not listed. The source made the active and inactive calls. Rule for the calls: active = hit-call score of the fitted dose curve at least 0.9, where 1 is the maximum; inconclusive = response in the unintended direction; inactive = score below 0.9.
reportedEndpoint: AC50

[[record]]
structurestring = "O=S(=O)(O)C(F)(F)C(F)(F)C(F)(F)C(F)(F)F"
result = "inactive"

[[record]]
structurestring = "COc1ccc(O)c(C(C)(C)C)c1"
result = "inactive"

[[record]]
structurestring = "CO/C=C(/C(=O)OC)c1ccccc1COc1cccc(C(F)(F)F)n1"
result = "35.8 µM (active)"

[[record]]
structurestring = "NS(=O)(=O)C(F)(F)C(F)(F)C(F)(F)C(F)(F)C(F)(F)C(F)(F)C(F)(F)C(F)(F)F"
result = "inactive"


Kindly consider the entry below.
Prompt: Could you tell me which AC50 is on file for CCOP(=S)(OCC)SCSC(C)(C)C ?
Completion: inactive
